Test system: HCT 116 human colorectal carcinoma cells
protocol-text: Alamar Blue cell proliferation assay, HCT 116
Format: cell-based
run-parameters: HCT 116 cells, 72 h, measurement 2, read-out: Measurement 2 EC50
test-readout: EC50 (nM)
Form entry: value (nM) — number only.

Give reported EC50 value for CCC1(O)C(=O)N(C)c2cnc(Nc3ccc(C(=O)N[C@H]4CC[C@H](N5CCN(CC6CC6)CC5)CC4)cc3OC)nc2N1C(C)C (stereo partly shown) [compound 12B]
335

* * *

target-entity: hERG channel (Homo sapiens, UniProt Q12809)
Construct: cDNA from M. Sanguinetti, University of Utah
Sequence (Q12809 whole entry): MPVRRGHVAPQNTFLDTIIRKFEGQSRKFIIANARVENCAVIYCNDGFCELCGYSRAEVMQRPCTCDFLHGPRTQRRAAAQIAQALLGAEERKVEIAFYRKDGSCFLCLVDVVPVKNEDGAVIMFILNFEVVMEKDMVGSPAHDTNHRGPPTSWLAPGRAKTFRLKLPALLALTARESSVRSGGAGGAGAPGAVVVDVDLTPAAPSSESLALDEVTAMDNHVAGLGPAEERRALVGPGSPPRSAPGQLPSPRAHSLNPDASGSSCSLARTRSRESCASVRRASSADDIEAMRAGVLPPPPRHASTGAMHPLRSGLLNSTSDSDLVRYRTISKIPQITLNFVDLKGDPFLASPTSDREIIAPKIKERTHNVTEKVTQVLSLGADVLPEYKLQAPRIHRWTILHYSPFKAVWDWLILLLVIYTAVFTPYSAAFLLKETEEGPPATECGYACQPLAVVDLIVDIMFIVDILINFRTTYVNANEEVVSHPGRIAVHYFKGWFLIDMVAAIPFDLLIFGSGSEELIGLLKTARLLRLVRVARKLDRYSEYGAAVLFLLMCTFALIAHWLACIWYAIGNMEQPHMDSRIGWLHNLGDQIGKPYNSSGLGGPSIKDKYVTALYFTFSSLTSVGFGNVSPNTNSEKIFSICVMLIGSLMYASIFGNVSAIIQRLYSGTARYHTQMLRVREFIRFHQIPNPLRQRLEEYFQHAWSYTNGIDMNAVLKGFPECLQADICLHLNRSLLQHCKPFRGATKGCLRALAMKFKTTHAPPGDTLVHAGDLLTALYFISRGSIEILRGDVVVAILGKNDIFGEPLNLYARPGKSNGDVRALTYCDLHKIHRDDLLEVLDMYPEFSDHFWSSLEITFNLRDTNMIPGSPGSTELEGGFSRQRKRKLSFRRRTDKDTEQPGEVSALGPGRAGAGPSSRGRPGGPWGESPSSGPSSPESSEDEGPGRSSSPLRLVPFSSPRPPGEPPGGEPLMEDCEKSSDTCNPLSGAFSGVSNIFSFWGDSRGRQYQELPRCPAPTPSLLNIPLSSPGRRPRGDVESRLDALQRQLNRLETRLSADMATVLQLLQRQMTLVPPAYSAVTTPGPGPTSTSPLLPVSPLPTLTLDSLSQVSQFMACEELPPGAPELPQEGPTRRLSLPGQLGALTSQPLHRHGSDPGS
protocol-text: hERG channel assay (whole-cell patch clamp)
run-parameters: HEK 293 cells stably transfected with hERG; 0.3, 1, 3, 10 μM tested; read-out: residual currents value (half-inhibitory concentration from fit to residual hERG current)
test-readout: IC50 (µM)
Form entry: value (µM) — number only.

Give reported IC50 value for CCC1(O)C(=O)N(C)c2cnc(Nc3ccc(C(=O)N[C@H]4CC[C@H](N5CCN(CC6CC6)CC5)CC4)cc3OC)nc2N1C(C)C (stereo partly shown) [compound 12B]
9.5

* * *

target-entity: human Plk1 enzyme (Homo sapiens)
Construct: The full-length coding region of the human Plk1 enzyme (residues 1-603); made in house; host or cells: Sf21 insect cells, baculovirus (pAcG2T vector, BD Biosciences)
Sequence (P53350 whole entry, the tested form may be a part): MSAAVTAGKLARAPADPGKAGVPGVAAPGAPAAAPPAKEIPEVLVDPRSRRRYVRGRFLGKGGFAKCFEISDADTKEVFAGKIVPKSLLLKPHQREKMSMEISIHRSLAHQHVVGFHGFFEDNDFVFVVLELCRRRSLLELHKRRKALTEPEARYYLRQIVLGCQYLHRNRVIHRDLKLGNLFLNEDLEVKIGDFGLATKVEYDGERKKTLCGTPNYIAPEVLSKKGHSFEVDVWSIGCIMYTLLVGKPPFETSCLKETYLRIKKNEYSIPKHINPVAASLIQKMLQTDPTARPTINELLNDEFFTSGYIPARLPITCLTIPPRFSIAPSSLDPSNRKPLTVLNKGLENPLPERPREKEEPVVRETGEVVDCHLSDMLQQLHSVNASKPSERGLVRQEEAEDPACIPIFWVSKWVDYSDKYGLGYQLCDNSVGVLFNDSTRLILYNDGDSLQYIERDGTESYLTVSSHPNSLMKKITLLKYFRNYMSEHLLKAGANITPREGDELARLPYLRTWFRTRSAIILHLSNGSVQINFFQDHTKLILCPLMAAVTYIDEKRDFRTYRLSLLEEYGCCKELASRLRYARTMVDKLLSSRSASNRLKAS
protocol-text: Plk1 low enzyme inhibition (kinase) assay
Type: biochemical
run-parameters: mean of 2 independent experiments; casein substrate, 7.5 μM ATP; read-out: Mean IC50
test-readout: pIC50
The read-out pIC50 is expressed as -log10 of concentration in moles per litre.

Give reported pIC50 value for CCC1(O)C(=O)N(C)c2cnc(Nc3ccc(C(=O)N[C@H]4CC[C@H](N5CCN(CC6CC6)CC5)CC4)cc3OC)nc2N1C(C)C (stereo partly shown) [compound 12B]
8.10

Measured values drawn from patent US20120329803A1 for this set.
